# Test system: HaCat
# measurement-notes: Cytotoxic Profiling of Annotated Libraries Using Quantitative High-Throughput Screening (AID 1296008); further: on the % scale 0 is the no-effect control and ±100 the full control effect; nearly all actives have a fitted effect of over 60% in size
# conditions: Five cell lines viability, CellTiter-Glo ATP luminescence, 48-72 h; active compounds read low
Records with an inconclusive call do not appear.
recorded-metric: max response (%)
Kindly provide the numeric value in % only, without the unit symbol.

CC(O)Cn1cnc2c1c(=O)n(C)c(=O)n2C (stereo not drawn)    -17.4
COc1ccc(C(=O)c2ccccc2O)c(O)c1    4.59
CCCCNC(=O)NS(=O)(=O)c1ccc(N)cc1    3.3
CCCCCCCCOc1ccc(C(=O)c2ccccc2)c(O)c1    -8.31
COc1cc(N)c(Cl)cc1C(=O)NC1CCN(Cc2ccccc2)CC1    1.83
CC(C)Cc1ccc(CC(=O)O)cc1    -0.56
Oc1ccccc1C=NCc1ccccc1    -1.46
Cc1ccccc1OCC(O)CO (stereo not drawn)    0.0907
COc1cc(C(=O)NCc2ccc(OCCN(C)C)cc2)cc(OC)c1OC    4.17
C#C[C@]1(O)CC[C@H]2[C@@H]3CCc4cc(OC)ccc4[C@H]3CC[C@@]21C    -21.7

Q: // returns reported max response for input CCN(CC)CCNC(=O)c1cc(Br)c(N)cc1OC
A: -11.9

Q: Name the recorded max response for CCc1oc2ccccc2c1C(=O)c1cc(I)c(O)c(I)c1 .
A: -7.93

Q: Consider the molecule shown here: COc1cc([C@H]2Oc3cc([C@H]4Oc5cc(O)cc(O)c5C(=O)[C@@H]4O)ccc3O[C@@H]2CO)ccc1O What is its recorded max response?
A: -5.16

Q: # input molecule: CCOc1ccccc1C(N)=O ; wanted: its max response
A: 1.44

Q: What does the data say about its max response? Entry: CCN1CCN(C(=O)N[C@@H](C(=O)N[C@@H]2C(=O)N3C(C(=O)O)=C(CSc4nnnn4C)CS[C@H]23)c2ccc(O)cc2)C(=O)C1=O
A: -2.57

* * *

# Test system: MKL-2
# measurement-notes: qHTS assay to identify novel small-molecules to repurpose for Merkel cell carcinoma treatment (AID 1296009); further: on the % scale 0 is the no-effect control and ±100 the full control effect; nearly all actives have a fitted effect of over 60% in size
# conditions: MCC and control cell lines, CellTiter-Glo viability, 72 h; series mostly up to 46 µM
Inconclusive results are not listed. The source made the active and inactive calls. The call rests on the fitted dose curve; in most records, active means well fitted inhibition curve with a large enough effect; inconclusive means small, poorly fitted or top-dose-only effect; inactive means flat fitted curve, though single readings scatter.
Your answer must be one of the following: true (active), false (inactive)

CCC1Nc2cc(Cl)c(S(N)(=O)=O)cc2S(=O)(=O)N1 (stereo unspecified)    false

Next compound, please.
Q: So what was the verdict on CCCCCCCCCCC[C@@H](C[C@@H]1OC(=O)[C@H]1CCCCCC)OC(=O)[C@H](CC(C)C)NC=O in this test?
A: false

* * *

# Test system: ICS
# measurement-notes: qHTS profiling for inhibitors of Plasmodium falciparum proliferation (AID 504749); further: nearly all actives have a fitted effect of over 60% in size; further: potency means the concentration at half of the fitted maximal effect
# conditions: P. falciparum in erythrocytes, SYBR Green DNA, 72 h; series mostly up to 28.7 µM
Results filed as inconclusive are left out. The source made the active and inactive calls. Calls come from the whole dose curve; as a rule, active = well fitted inhibition curve with a large enough effect; inconclusive = small, poorly fitted or top-dose-only effect; inactive = flat fitted curve, though single readings scatter.
recorded-metric: Potency

CCCN(CCC)S(=O)(=O)c1ccc(C(=O)O)cc1    inactive
CCC(C(=O)OCCOCCN(CC)CC)c1ccccc1 (centres undefined)    inactive
CN(C)CCN1C(=O)c2ccccc2N(C)c2ccccc21    inactive
C=C[C@@]1(C)CC(=O)[C@]2(O)[C@@]3(C)[C@@H](O)CCC(C)(C)[C@@H]3[C@H](O)[C@H](OC(C)=O)[C@@]2(C)O1    inactive
O=C(CCN1CCN2CCCC2C1)N1c2ccccc2Sc2ccc(Cl)cc21 (centres undefined)    5.01 µM (active)

Q: Enter reported Potency observed with ICS for Nc1nc(N)c(-c2ccccc2)s1
A: inactive

Q: Please provide the recorded Potency for COc1ccccc1N1CCN(CCCCNC(=O)c2ccc(-c3ccc(C(C)=O)cc3)cc2)CC1 , tested on ICS.
A: 14.1 µM (active)

Q: # returns recorded Potency (system: ICS) for COc1ccc2c(c1)c1c3n2CCN(C)C3=NCC1
A: inactive

Q: Form: Entry = C#C[C@]1(O)CC[C@H]2[C@@H]3CCC4=Cc5oncc5C[C@]4(C)[C@H]3CC[C@@]21C | System = ICS | Potency = ____
A: inactive
